Source of measurements: patent US10335392B2

targetOfAssay: TNFα (Homo sapiens (Human), UniProt P01375)
Sequence (P01375 77-233): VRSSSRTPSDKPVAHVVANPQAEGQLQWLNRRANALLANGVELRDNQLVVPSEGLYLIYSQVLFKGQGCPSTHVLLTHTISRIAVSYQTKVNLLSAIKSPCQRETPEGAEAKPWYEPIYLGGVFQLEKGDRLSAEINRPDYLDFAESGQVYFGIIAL
protocolNotes: TNF induced HEK-Blue assay
particulars: TNFα 0.5 ng/ml; HEK-Blue-CD40L cells, NF-kB-driven secreted alkaline phosphatase reporter; 18 h
pIC50: −log10 of the molar value.
propertyLabel: pIC50

Examples with answers:
compound | propertyLabel | measurement
CC(C)(O)c1ncc(-c2cc3c(cc2F)nc2n3[C@@H](c3ccccc3Oc3ccccc3)[C@H]3C[C@@H]23)cn1 (racemic) [Example 24] | pIC50 | 5.00 to 6.00
CC(C)(O)c1ncc(-c2cc3c(cc2F)nc2n3[C@@H](c3ccccc3Oc3ccccc3)[C@@H]3C[C@H]23)cn1 [Example 27] | pIC50 | 5.00 to 6.00
CC(C)(O)Cn1cc(-c2cc3c(cc2F)nc2n3[C@@H](c3ccccc3OC(F)F)[C@H]3C[C@@H]23)cn1 [Example 16] | pIC50 | 5.00 to 6.00

GET /value?item= CC(C)(O)c1ncc(-c2cc3c(cc2F)nc2n3[C@H](c3ccccc3Oc3ccccc3)[C@@H]3C[C@H]23)cn1 [Example 28] &field=pIC50 returns 5.00 to 6.00

GET /value?item= CC(C)(O)c1ncc(-c2cc3c(cc2F)nc2n3[C@@H](c3ccccc3OC(F)F)[C@H]3C[C@@H]23)cn1 (racemic) [Example 1] &field=pIC50 returns > 6.00

GET /value?item= O=C(O)CN1CCN(c2ncc(-c3cc4c(cc3F)nc3n4[C@@H](c4ccccc4OC(F)F)[C@@H]4C[C@H]34)cn2)CC1 [Example 33] &field=pIC50 returns > 6.00
